target: Metabotropic glutamate receptor 8 (Rattus norvegicus); assay: mGluR8 Gi/Go-coupled signaling modulation – cell-based, rat, thallium flux, HTS, primary screen (AID 488969); settings: HEK293 rat mGluR8, GIRK (G protein-gated inwardly rectifying potassium channel) thallium flux, FluoZin2; at 10 µM; stronger effect = higher value; submaximal glutamate (EC20) added with thallium
Over roughly 110,000 compounds, “z-score” has its median near -0.1; the highest 2% begin near 2. For the sample, the highest values were picked, then their nearest neighbours and some compounds at random.
Rule: z-score under -0.07 gives rule not met, otherwise rule met.

These recorded examples may help you get a feel for the data.
[
  {
    "COMPOUND": "c1ccc(N(c2ccccc2)c2nc(-n3ccnc3)nc(-n3ccnc3)n2)cc1",
    "ASSIGNED_CATEGORY": "rule not met"
  },
  {
    "COMPOUND": "CCOC(=O)C1=NN(C(=O)c2ccc(C)cc2)C(O)(c2ccc(Cl)cc2)C1 (centres undefined)",
    "ASSIGNED_CATEGORY": "rule met"
  }
]

*Q* Determine whether this compound has z-score no lower than -0.07: COc1cc2c(=O)n(CCCN3CCOCC3)c(=S)[nH]c2c(OC)c1OC
*A* rule met

*Q* Another compound to check: CCCCn1c(Nc2ccccc2)nc2ccccc21
*A* rule met

*Q* Another compound to check: CCN(CC)C(=O)CSc1nc2ncccc2[nH]1
*A* rule met

*Q* Another compound to check: O=c1c2cc(N3CCOCC3)ccc2[nH]c(=S)n1CCCN1CCCC1
*A* rule not met

*Q* Another compound to check: COc1cc2[nH]c(=S)n(CCN3CCOCC3)c(=O)c2cc1OC
*A* rule not met

*Q* Another compound to check: CN(C)S(=O)(=O)N1CCN(C(=O)N2CCCCCC2)CC1
*A* rule not met

*Q* Another compound to check: CC12CCC(C(=O)N3CCCc4ccccc43)(CC1=O)C2(C)C (centres undefined)
*A* rule met

*Q* Another compound to check: S=C(Nc1ccccc1)Nc1nc2ccccc2n1CCOc1ccc(Cl)cc1
*A* rule met

*Q* Another compound to check: CCCCn1c(NC(=S)Nc2ccccc2)nc2ccccc21
*A* rule met

*Q* Another compound to check: O=C(Nc1ccccc1)N1CCc2ccccc21
*A* rule not met

*Q* Another compound to check: COc1ccc(/C=N/NC(=O)c2ccccc2O)cc1CSc1ccccn1
*A* rule met

*Q* Another compound to check: CCCn1c(NC(=S)Nc2ccccc2)nc2ccccc21
*A* rule met

*Q* Another compound to check: COc1ccccc1/C=N/NC(=O)CC(=O)NCc1cccnc1
*A* rule not met
